Data origin: patent US10385055B2

- System: A. baumannii
Field: MIC. Provide a value for each of the compounds that follow.
One number for each entry, in µg/mL.

>  <Compound>
CNc1cc(F)cc2c1[nH]c1nc(Oc3cnc(C)nc3)nc(N3C[C@@H]4[C@@H](O)[C@@H]4C3)c12

>  <MIC (µg/mL)>
2

$$$$
>  <Compound>
CNc1cc(F)c(F)c2c1[nH]c1nc(Oc3cnc([C@H](C)O)nc3)nc(N3CC4(CCC4N)C3)c12 (stereo partly shown)

>  <MIC (µg/mL)>
2

$$$$
>  <Compound>
CNc1cc(F)cc2c1[nH]c1nc(Oc3cnc(C)nc3)nc(N3C[C@H]4C[C@@H](O)[C@H]4C3)c12

>  <MIC (µg/mL)>
1

$$$$

Now examine the next entry.
Lookup: Name the recorded MIC for `CNc1cc(F)c(F)c2c1[nH]c1nc(Oc3cnc([C@H](C)O)nc3)nc(N3C[C@H]4CC3C[C@H]4N)c12` .
Found: 4
